The measurements presented in this section are drawn from patent US20240376084A1.

target desc: hemolysin alpha from Staphylococcus aureus (Staphylococcus aureus, UniProt P09616)
Sequence (P09616 27-319 limits assumed): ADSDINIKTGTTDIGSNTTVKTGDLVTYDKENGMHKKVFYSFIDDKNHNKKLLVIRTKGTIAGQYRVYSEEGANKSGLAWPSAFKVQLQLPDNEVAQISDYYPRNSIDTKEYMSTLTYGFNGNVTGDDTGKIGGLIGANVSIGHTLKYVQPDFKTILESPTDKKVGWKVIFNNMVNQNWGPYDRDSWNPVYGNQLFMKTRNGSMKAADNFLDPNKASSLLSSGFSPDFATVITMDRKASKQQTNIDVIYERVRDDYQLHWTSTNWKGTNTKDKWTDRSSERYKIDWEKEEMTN
experiment summary: cell-based
pEC50: −log10 of the molar value.
readout: pEC50

### Prompt Please report pEC50 for the following compound: Cc1cc2[nH]c(=O)c(=O)[nH]c2cc1S(=O)(=O)Nc1ccc(-c2ccc(F)c(C#N)c2)c(Cl)c1
### Response 7.00 to 7.52

### Prompt Please report pEC50 for the following compound: CC(C)(C)c1ccc(NS(=O)(=O)c2cc3[nH]c(=O)c(=O)[nH]c3cc2Br)cc1
### Response 5.46 to 6.00

----------
target desc: hemolysin alpha from Staphylococcus aureus (Staphylococcus aureus)
experiment summary: cell-based
readout: EC50

### Prompt Please report EC50 for the following compound: COc1ccc(-c2ccc(NS(=O)(=O)c3cc4[nH]c(=O)c(=O)[nH]c4cc3C)cc2Cl)cc1C#N [Compound 289]
### Response 0.03 to 0.1 µM

### Prompt Please report EC50 for the following compound: Cc1cc2[nH]c(=O)c(=O)[nH]c2cc1S(=O)(=O)Nc1ccc(-c2ccc(=O)[nH]c2)c(Cl)c1 [Compound 358]
### Response 0.1 to 1 µM

### Prompt Please report EC50 for the following compound: Cc1cc2[nH]c(=O)c(=O)[nH]c2cc1S(=O)(=O)Nc1ccc(C2COC2)cc1 [Compound 384]
### Response 1 to 3.5 µM

Others:
### Prompt Please report EC50 for the following compound: Cc1cc2[nH]c(=O)c(=O)[nH]c2cc1S(=O)(=O)Nc1cc(Cl)c(-c2cccc(Cl)c2)cn1 [Compound 210]
### Response 0.03 to 0.1 µM

----------
target desc: UniProt:P09616
experiment summary: cell-based
applied conditions: A549-LDH Assay activity
pEC50: −log10 of the molar value.
Quick reference: pEC50 of the listed items.

### Prompt Please report pEC50 for the following compound: Cc1ccccc1-c1c(C)cc(NS(=O)(=O)c2cc3[nH]c(=O)c(=O)[nH]c3cc2C)cc1C
### Response 5.22 to 6.00

### Prompt Please report pEC50 for the following compound: CC(C)(C)c1ccc(NS(=O)(=O)c2cc3[nH]c(=O)c(=O)[nH]c3cc2Cl)cc1
### Response 7.00 to 7.52

### Prompt Please report pEC50 for the following compound: CC(C)c1cc2[nH]c(=O)c(=O)[nH]c2cc1S(=O)(=O)Nc1ccc(-c2cccc(N(C)C)c2)c(Cl)c1
### Response 6.00 to 7.00

### Prompt Please report pEC50 for the following compound: Cc1cc2[nH]c(=O)c(=O)[nH]c2cc1S(=O)(=O)Nc1ccc(-c2ccc3c(c2)CCN3C)c(Cl)c1
### Response 5.22 to 6.00

### Prompt Please report pEC50 for the following compound: Cc1cc2[nH]c(=O)c(=O)[nH]c2cc1S(=O)(=O)Nc1ccc(C2CCC2)cc1
### Response 7.00 to 7.52

# input for lookup
### Prompt Please report pEC50 for the following compound: COc1ncc(-c2ccc(NS(=O)(=O)c3cc4[nH]c(=O)c(=O)[nH]c4cc3C)cc2Cl)cn1
### Response 6.00 to 7.00

----------
target desc: hemolysin alpha from Staphylococcus aureus (Staphylococcus aureus)
experiment summary: cell-based
Quick reference: EC50 of the listed items.

Example entries and their recorded answers appear below.
### Prompt Please report EC50 for the following compound: COc1ncc(-c2ccc(NS(=O)(=O)c3cc4[nH]c(=O)c(=O)[nH]c4cc3C)cc2Cl)cn1 [Compound 260]
### Response 100 to 1000 nM

### Prompt Please report EC50 for the following compound: Cc1cc2[nH]c(=O)c(=O)[nH]c2cc1S(=O)(=O)Nc1ccc(-c2cccc(C#N)c2)c(Cl)c1 [Compound 318]
### Response 30 to 100 nM

### Prompt Please report EC50 for the following compound: C#Cc1cc(NS(=O)(=O)c2cc3[nH]c(=O)c(=O)[nH]c3cc2C)ccc1-c1ccc(F)cc1 [Compound 378]
### Response < 30 nM

### Prompt Please report EC50 for the following compound: Cc1cc2[nH]c(=O)c(=O)[nH]c2cc1S(=O)(=O)Nc1ccc(-c2ccc3nc[nH]c3c2)c(Cl)c1 [Compound 359]
### Response 100 to 1000 nM

### Prompt Please report EC50 for the following compound: Cc1cc2[nH]c(=O)c(=O)[nH]c2cc1S(=O)(=O)Nc1ccc(I)c(C(F)(F)F)c1 [Compound 325]
### Response 100 to 1000 nM

# input for lookup
### Prompt Please report EC50 for the following compound: Cc1cc2[nH]c(=O)c(=O)[nH]c2cc1S(=O)(=O)Nc1ccc(-c2cc[nH]c(=O)c2)c(Cl)c1 [Compound 280]
### Response 1000 to 3500 nM

----------
target desc: S. aureus Alpha hemolysin (Staphylococcus aureus, UniProt P09616)
experiment summary: cell-based
applied conditions: A549-LDH Assay activity
Quick reference: EC50 of the listed items.

Example entries and their recorded answers appear below.
### Prompt Send back S. aureus Alpha hemolysin (Staphylococcus aureus, UniProt P09616) EC50 of Cc1cccc(-c2ccc(NS(=O)(=O)c3cc4[nH]c(=O)c(=O)[nH]c4cc3C)cc2Cl)c1 only.
### Response 0.03 to 0.1 µM

### Prompt Send back S. aureus Alpha hemolysin (Staphylococcus aureus, UniProt P09616) EC50 of Cc1cc2[nH]c(=O)c(=O)[nH]c2cc1S(=O)(=O)Nc1ccc(N2CCOCC2)c(Br)c1 only.
### Response 0.1 to 1 µM

### Prompt Send back S. aureus Alpha hemolysin (Staphylococcus aureus, UniProt P09616) EC50 of CC(C)=Cc1ccc(NS(=O)(=O)c2cc3[nH]c(=O)c(=O)[nH]c3cc2C)cc1Cl only.
### Response 0.03 to 0.1 µM

Others:
### Prompt Send back S. aureus Alpha hemolysin (Staphylococcus aureus, UniProt P09616) EC50 of Cc1cc2[nH]c(=O)c(=O)[nH]c2cc1S(=O)(=O)Nc1ccc(-c2ccc3nc[nH]c3c2)c(Cl)c1 only.
### Response 0.03 to 0.1 µM

### Prompt Send back S. aureus Alpha hemolysin (Staphylococcus aureus, UniProt P09616) EC50 of C#Cc1ccc(-c2ccc(NS(=O)(=O)c3cc4[nH]c(=O)c(=O)[nH]c4cc3C)cc2C#C)cc1 only.
### Response < 0.03 µM

### Prompt Send back S. aureus Alpha hemolysin (Staphylococcus aureus, UniProt P09616) EC50 of Cc1cc(C2CC2)ccc1NS(=O)(=O)c1cc2[nH]c(=O)c(=O)[nH]c2cc1C only.
### Response 0.03 to 0.1 µM

### Prompt Send back S. aureus Alpha hemolysin (Staphylococcus aureus, UniProt P09616) EC50 of Cc1cc2[nH]c(=O)c(=O)[nH]c2cc1S(=O)(=O)Nc1ccc(C(C)(C)C)cc1 only.
### Response 0.03 to 0.1 µM

----------
Quick reference: EC50 of the listed items.
target desc: hemolysin alpha from Staphylococcus aureus (Staphylococcus aureus, UniProt P09616)
experiment summary: cell-based

Example entries and their recorded answers appear below.
### Prompt Please report EC50 for the following molecule: Cc1nc2ccc(-c3ccc(NS(=O)(=O)c4cc5[nH]c(=O)c(=O)[nH]c5cc4C)cc3Cl)cc2o1 [Compound 269]
### Response < 30 nM

### Prompt Please report EC50 for the following molecule: O=c1[nH]c2cc(OC(F)(F)F)c(S(=O)(=O)Nc3ccc(OC(F)(F)F)cc3)cc2[nH]c1=O [Compound 192]
### Response 100 to 1000 nM

### Prompt Please report EC50 for the following molecule: Cc1cc2[nH]c(=O)c(=O)[nH]c2cc1S(=O)(=O)Nc1ccc(-c2ccc3c(c2)OCCN3C)c(Cl)c1 [Compound 329]
### Response 100 to 1000 nM

### Prompt Please report EC50 for the following molecule: Cc1cc2[nH]c(=O)c(=O)[nH]c2cc1S(=O)(=O)Nc1ccc(-c2ccccc2)nc1 [Compound 224]
### Response 100 to 1000 nM

### Prompt Please report EC50 for the following molecule: O=c1[nH]c2cc(OCC(F)(F)F)c(S(=O)(=O)Nc3ccc(OC(F)(F)F)cc3)cc2[nH]c1=O [Compound 276]
### Response 30 to 100 nM

### Prompt Please report EC50 for the following molecule: Cc1cc2[nH]c(=O)c(=O)[nH]c2cc1S(=O)(=O)Nc1cnc(Br)c(Cl)c1 [Compound 236]
### Response 1000 to 3500 nM

# input for lookup
### Prompt Please report EC50 for the following molecule: Cc1cc2[nH]c(=O)c(=O)[nH]c2cc1S(=O)(=O)Nc1ccc(-c2ccc3cc[nH]c3c2)c(Cl)c1 [Compound 271]
### Response < 30 nM

----------
pIC50: −log10 of the molar value.
Recorded pIC50 values (hemolysin alpha from Staphylococcus aureus (Staphylococcus aureus, UniProt P09616)) are given below.

Example entries and their recorded answers appear below.
### Prompt Please report pIC50 for the following compound: O=c1[nH]c2cc(Cl)c(S(=O)(=O)Nc3ccc(-c4ccoc4)c(Cl)c3)cc2[nH]c1=O
### Response 7.00 to 7.52

### Prompt Please report pIC50 for the following compound: Cc1cc2[nH]c(=O)c(=O)[nH]c2cc1S(=O)(=O)Nc1ccc(N2CCOCC2)c(Br)c1
### Response 6.00 to 7.00

### Prompt Please report pIC50 for the following compound: Cc1cc(NS(=O)(=O)c2cc3[nH]c(=O)c(=O)[nH]c3cc2F)ccc1Br
### Response 6.00 to 7.00

### Prompt Please report pIC50 for the following compound: CCc1ccccc1-c1c(C)cc(NS(=O)(=O)c2cc3[nH]c(=O)c(=O)[nH]c3cc2C)cc1C
### Response 6.00 to 7.00

### Prompt Please report pIC50 for the following compound: Cc1cc2[nH]c(=O)c(=O)[nH]c2cc1S(=O)(=O)Nc1ccc(C2CCCCC2)cc1
### Response 6.00 to 7.00

Others:
### Prompt Please report pIC50 for the following compound: CC(C)c1ccc(NS(=O)(=O)c2cc3[nH]c(=O)c(=O)[nH]c3cc2Cl)cc1
### Response 6.00 to 7.00

### Prompt Please report pIC50 for the following compound: Cc1cc(NS(=O)(=O)c2cc3[nH]c(=O)c(=O)[nH]c3cc2C)ccc1C(F)(F)F
### Response 6.00 to 7.00

### Prompt Please report pIC50 for the following compound: Cc1cc2[nH]c(=O)c(=O)[nH]c2cc1S(=O)(=O)Nc1ccc(-c2cccs2)c(Cl)c1
### Response > 7.52

### Prompt Please report pIC50 for the following compound: Cc1cc2[nH]c(=O)c(=O)[nH]c2cc1S(=O)(=O)Nc1cc(C)c(-c2ccccc2F)c(C)c1
### Response 7.00 to 7.52

### Prompt Please report pIC50 for the following compound: Cc1cc2[nH]c(=O)c(=O)[nH]c2cc1S(=O)(=O)Nc1cc(C)c(-c2sccc2C)c(C)c1
### Response 6.00 to 7.00
